system: 5-Lipoxygenase; test: 5-Lipoxygenase inhibitory activity, colorimetric method (ferric xylenol orange, linoleic acid); type: biochemical; details: 250 μM
// % inhibition of 5-Lox activity lookup, one value per entry
endpoint: % inhibition of 5-Lox activity (%)

1. CC(N)C(=O)OC1CC2(C)C(CCC3(C)C2CC=C2C4C(C)C(C)CCC4(C(=O)O)CCC23C)C(C)(C)C1O.Cl (centres unmarked) [Compound 5, 2-O-Alanylcorosolic acid hydrochloride] = 67.03
2. COC(=O)C12CCC(C)C(C)C1C1=CCC3C4(C)CC(OC(=O)C=Cc5cc(OC)c(OC)c(OC)c5)C(O)C(C)(C)C4CCC3(C)C1(C)CC2 (centres unmarked) = 13.47
3. CC1CCC2(C(=O)O)CCC3(C)C(=CCC4C5(C)CC(OC(=O)c6cccnc6)C(O)C(C)(C)C5CCC43C)C2C1C (centres unmarked) = 53.19
4. C[C@H]1[C@H](C)CC[C@]2(C(=O)O)CC[C@]3(C)C(=CC(=O)[C@@H]4[C@@]5(C)C[C@H]6OS(=O)(=O)O[C@@H]6C(C)(C)[C@@H]5CC[C@]43C)[C@H]12 = 11.81
5. C[C@H]1[C@H](C)CC[C@]2(C(=O)O)CC[C@]3(C)C(=CC[C@@H]4[C@@]5(C)C[C@@H](O)[C@H](O)C(C)(C)[C@@H]5CC[C@]43C)[C@H]12 [Corosolic acid, 2α-hydroxyursolic acid] = 29.26
6. CC1CCC2(C(=O)O)CCC3(C)C(=CCC4C5(C)CC(OC(=O)CN)C(O)C(C)(C)C5CCC43C)C2C1C.Cl (centres unmarked) [Compound 4, 2-O-Glycylcorosolic acid hydrochloride] = 27.83
7. CC(Cc1ccc(O)c(O)c1)C(C)Cc1ccc(O)c(O)c1 (centres unmarked) [NDGA, Nordihydroguaiaretic acid, reference compound] = 91.55
8. COC(=O)[C@]12CC[C@@H](C)[C@H](C)[C@H]1C1=CC(=O)[C@@H]3[C@@]4(C)C[C@@H](O)[C@H](O)C(C)(C)[C@@H]4CC[C@@]3(C)[C@]1(C)CC2 [Compound 15, Methyl 11-ketocorosolate] = 25.09
9. CC1CCC2(C(=O)NCCN)CCC3(C)C(=CCC4C5(C)CC(O)C(O)C(C)(C)C5CCC43C)C2C1C (centres unmarked) [Compound 10, N-(2-Aminoethyl)corosolamide] = 40.87
10. CC1CCC2(C(=O)NCCO)CCC3(C)C(=CCC4C5(C)CC(O)C(O)C(C)(C)C5CCC43C)C2C1C (centres unmarked) [Compound 12, N-(2-Hydroxyethyl)corosolamide] = 32.96
11. COC(=O)C12CCC(C)C(C)C1C1=CC(O)C3C4(C)CC(O)C(O)C(C)(C)C4CCC3(C)C1(C)CC2 (centres unmarked) [Compound 22, Methyl 11-hydroxycorosolate] = 49.40

###

Measured Inhibitory rate (serum glucose level inhibitory rate), listed per entry for reference.
tested on: Albino wistar rats; assay: Hypoglycemic activity: inhibition of sucrose-induced raise in serum glucose levels (SGL); format: in vivo; design: unit not given here; conditions: oral dose 1 mg/Kg; mean increase in serum glucose levels of treated vs control groups
endpoint: Inhibitory rate (serum glucose level inhibitory rate)

1) COC(=O)C12CCC(C)C(C)C1C1=CCC3C4(C)CC(OC(=O)C=Cc5cc(OC)c(OC)c(OC)c5)C(O)C(C)(C)C4CCC3(C)C1(C)CC2 (stereo not shown) [Compound 6] = 21.94
2) CC1CCC2(C(=O)O)CCC3(C)C(=CCC4C5(C)CC(OC(=O)CN)C(O)C(C)(C)C5CCC43C)C2C1C.Cl (stereo not shown) [Compound 4, 2-O-Glycylcorosolic acid hydrochloride] = 26.8
3) C[C@H]1[C@H](C)CC[C@]2(C(=O)O)CC[C@]3(C)C(=CC[C@@H]4[C@@]5(C)C[C@@H](O)[C@H](O)C(C)(C)[C@@H]5CC[C@]43C)[C@H]12 [Corosolic acid, 2α-hydroxyursolic acid] = 9.78
4) C[C@H]1[C@H](C)CC[C@]2(C(=O)O)CC[C@]3(C)C(=CC(=O)[C@@H]4[C@@]5(C)C[C@@H](O)[C@H](O)C(C)(C)[C@@H]5CC[C@]43C)[C@H]12 [Compound 17, 11-Ketocorosolic acid] = 25.78
5) C[C@H]1[C@H](C)CC[C@]2(C(N)=O)CC[C@]3(C)C(=CC(=O)[C@@H]4[C@@]5(C)C[C@@H](O)[C@H](O)C(C)(C)[C@@H]5CC[C@]43C)[C@H]12 [Compound 20, 11-Ketocorosolamide] = 12.33
6) CC1CCC2(C(=O)NCCO)CCC3(C)C(=CCC4C5(C)CC(O)C(O)C(C)(C)C5CCC43C)C2C1C (stereo not shown) [Compound 12, N-(2-Hydroxyethyl)corosolamide] = 36.47
7) CC1CCC2(C(=O)NCCN)CCC3(C)C(=CCC4C5(C)CC(O)C(O)C(C)(C)C5CCC43C)C2C1C (stereo not shown) [Compound 10, N-(2-Aminoethyl)corosolamide] = 30.28
8) C[C@H]1[C@H](C)CC[C@]2(C(=O)O)CC[C@]3(C)C(=CC(=O)[C@@H]4[C@@]5(C)C[C@H]6OS(=O)(=O)O[C@@H]6C(C)(C)[C@@H]5CC[C@]43C)[C@H]12 [Compound 19] = 11.67
9) CC(N)C(=O)OC1CC2(C)C(CCC3(C)C2CC=C2C4C(C)C(C)CCC4(C(=O)O)CCC23C)C(C)(C)C1O.Cl (stereo not shown) [Compound 5, 2-O-Alanylcorosolic acid hydrochloride] = 22.39
10) COC(=O)[C@]12CC[C@@H](C)[C@H](C)[C@H]1C1=CC[C@@H]3[C@@]4(C)C[C@@H](O)[C@H](O)C(C)(C)[C@@H]4CC[C@@]3(C)[C@]1(C)CC2 [Compound 13, Methyl corosolate] = 11.6
